Form field: enrichment (one value per entry).
B1: NLV3 TCR beta chain (CDR3β only) (parent)
chain: ASSPTGGSPSPLH

- Variants of: B1
- methodDescription: T-Switch: Jurkat TCRβ−/− cells expressing a CDR3 saturation-mutagenesis library, stained with two peptide-HLA-A*02:01 tetramers (original and novel peptide) plus anti-CD3, FACS-sorted into four gates, gDNA sequenced
- conditionSet: with both tetramers (double-positive gate): HLA-A*02:01 with … and with …, tetramers 1 µg/mL, 30 min on ice, SP, DP and SW gates expanded about 10 days between rounds ('two to three rounds of selection' in the Methods), gate DP: higher = more of the variant in the gate that binds both peptides. Fold enrichment of the CDR3 variant in one FACS gate of a two-tetramer stain. SP/DP/SW gates were expanded and re-sorted bef, unresolved parent, parent is a CDR3 fragment, scale: fold enrichment, numbering: sequential-on-construct, sequence starts at 1
// return a plain number; no unit text

1) […] (CDR3 as printed); P4Y derived by comparing it with the table's wild-type CDR3 ASSPTGGSPSPLH ... 0
2) […] (CDR3 as printed); T5H derived by comparing it with the table's wild-type CDR3 ASSPTGGSPSPLH ... 0
3) […] (CDR3 as printed); G6Y derived by comparing it with the table's wild-type CDR3 ASSPTGGSPSPLH ... 0
4) […] (CDR3 as printed); S10Q derived by comparing it with the table's wild-type CDR3 ASSPTGGSPSPLH ... 0
5) […] (CDR3 as printed); A1M derived by comparing it with the table's wild-type CDR3 ASSPTGGSPSPLH ... 0

What value of enrichment has been reported for the following variant? […] (CDR3 as printed); S8D derived by comparing it with the table's wild-type CDR3 ASSPTGGSPSPLH
0

What value of enrichment has been reported for the following variant? […] (CDR3 as printed); S2F derived by comparing it with the table's wild-type CDR3 ASSPTGGSPSPLH
0

What value of enrichment has been reported for the following variant? […] (CDR3 as printed); S10G derived by comparing it with the table's wild-type CDR3 ASSPTGGSPSPLH
0

What value of enrichment has been reported for the following variant? […] (CDR3 as printed); P9R derived by comparing it with the table's wild-type CDR3 ASSPTGGSPSPLH
0

What value of enrichment has been reported for the following variant? […] (CDR3 as printed); S8W derived by comparing it with the table's wild-type CDR3 ASSPTGGSPSPLH
0

What value of enrichment has been reported for the following variant? […] (CDR3 as printed); G7W derived by comparing it with the table's wild-type CDR3 ASSPTGGSPSPLH
0

What value of enrichment has been reported for the following variant? […] (CDR3 as printed); S10A derived by comparing it with the table's wild-type CDR3 ASSPTGGSPSPLH
0

What value of enrichment has been reported for the following variant? […] (CDR3 as printed); A1G derived by comparing it with the table's wild-type CDR3 ASSPTGGSPSPLH
0
